Taken from patent US20150266974A1.

target_or_system: T1, mouse PCSK9 (mouse, UniProt Q80W65 35-694, limits assumed)
T1 construct: also called mPCSK9; msPCK9
T1 sequence (Q80W65 35-694 limits assumed): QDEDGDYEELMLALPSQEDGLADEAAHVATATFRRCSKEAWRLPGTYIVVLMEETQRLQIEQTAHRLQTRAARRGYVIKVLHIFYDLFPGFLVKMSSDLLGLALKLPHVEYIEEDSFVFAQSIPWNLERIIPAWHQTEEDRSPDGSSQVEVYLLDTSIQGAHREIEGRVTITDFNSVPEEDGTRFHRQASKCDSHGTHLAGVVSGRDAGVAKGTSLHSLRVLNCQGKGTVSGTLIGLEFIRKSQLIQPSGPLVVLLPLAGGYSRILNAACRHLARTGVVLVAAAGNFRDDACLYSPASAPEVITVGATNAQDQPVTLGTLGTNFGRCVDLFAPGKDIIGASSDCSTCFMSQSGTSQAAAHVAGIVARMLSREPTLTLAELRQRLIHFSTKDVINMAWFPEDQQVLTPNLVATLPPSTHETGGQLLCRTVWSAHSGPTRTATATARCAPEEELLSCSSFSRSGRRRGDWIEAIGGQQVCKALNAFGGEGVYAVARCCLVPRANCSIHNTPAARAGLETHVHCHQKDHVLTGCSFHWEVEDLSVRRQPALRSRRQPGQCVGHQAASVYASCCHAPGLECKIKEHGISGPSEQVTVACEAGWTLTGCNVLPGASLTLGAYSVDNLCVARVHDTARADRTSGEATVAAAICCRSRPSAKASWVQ
method: SPR Biacore 3000, captured IgG, mPCSK9 injected, pH 7.4
property: kon (M⁻¹ s⁻¹)
Respond with the bare value in M⁻¹ s⁻¹.

GET /value?item= 5L1721H23_6L3H3 (antibody, V domains shown, Tested as full-length IgG; also called heavy UC-H5H23-6H3, light UC-H5L1721-6L3) VH: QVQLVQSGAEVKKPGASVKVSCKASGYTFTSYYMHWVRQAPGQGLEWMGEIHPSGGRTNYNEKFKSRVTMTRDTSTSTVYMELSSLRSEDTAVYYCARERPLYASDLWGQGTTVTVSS VL: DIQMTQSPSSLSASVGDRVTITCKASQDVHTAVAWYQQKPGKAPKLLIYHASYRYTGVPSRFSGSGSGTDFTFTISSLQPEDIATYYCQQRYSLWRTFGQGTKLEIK &field=kon returns 63700
